System: 898857-211-R-J1-PDC complex spheroids, growth % test/control;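 further: spheroids exposed to compound for seven days before readout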
protocol details: Anticancer human tumor 898857-211-R-J1-PDC patient-derived melanoma cell line growth inhibition [RAS]
test conditions: curve of first compound; second compound 0.00949 µM
Source text: RAS pathway inhibitors in Combinations in Complex Spheroids A high-throughput screen of multi-cell type tumor spheroids was designed to identify active combinations of RAS pathway inhibitors and targeted small molecules. Complex spheroids include a stromal component modeled by human endothelial cells (HUVEC) and fibroblasts modeled by human mesenchymal stem cells (MSCs). […] Compounds. […] If the clinical Cmax for an agent had not been determined, the highest concentration tested was 10 microM. […]

| compound | assayed target | quantity unit | result modifier | IC50 |
| --- | --- | --- | --- | --- |
| Nc1ccn(C2OC(CO)C(O)C2(F)F)c(=O)n1 (centres undefined) + CCn1c(-c2cc(N3CCN(C)CC3)cnc2C(C)OC)c2c3cc(ccc31)-c1csc(n1)CC(NC(=O)C1CC1C)C(=O)N1CCCC(N1)C(=O)OCC(C)(C)C2 | 898857-211-R-J1-PDC complex spheroids, growth % test/control | nM | = | 4.35 |
| NC1c2ccccc2OC12CCN(c1cnc3c(N4CCCc5ncccc54)n[nH]c3n1)CC2 (centres undefined) + CCn1c(-c2cccnc2C(C)OC)c2c3cc(ccc31)N1CCOC(CC(NC(=O)C(C(C)C)N(C)C(=O)C3(F)CCN(C(=O)C#CC(C)(C)N(C)C)CC3)C(=O)N3CCCC(N3)C(=O)OCC(C)(C)C2)C1 | 898857-211-R-J1-PDC complex spheroids, growth % test/control | nM | > | 10000 |
| C=CC(=O)Nc1cc(Nc2nccc(-c3cn(C)c4ccccc34)n2)c(OC)cc1N(C)CCN(C)C + CCn1c(-c2cccnc2C(C)OC)c2c3cc(ccc31)N1CCOC(CC(NC(=O)C(C(C)C)N(C)C(=O)C3(F)CCN(C(=O)C#CC(C)(C)N(C)C)CC3)C(=O)N3CCCC(N3)C(=O)OCC(C)(C)C2)C1 | 898857-211-R-J1-PDC complex spheroids, growth % test/control | nM | > | 1000 |
| CC1(C)CCC(Nc2ncc(C(F)(F)F)c(-c3c[nH]c4c(P(C)(C)=O)c(C#N)ccc34)n2)CN1 (centres undefined) + CCn1c(-c2cc(N3CCN(C)CC3)cnc2C(C)OC)c2c3cc(ccc31)-c1csc(n1)CC(NC(=O)C1CC1C)C(=O)N1CCCC(N1)C(=O)OCC(C)(C)C2 | 898857-211-R-J1-PDC complex spheroids, growth % test/control | nM | = | 3.56 |
